B1: library; a variant is named by its letters at N, in order (parent)
chain: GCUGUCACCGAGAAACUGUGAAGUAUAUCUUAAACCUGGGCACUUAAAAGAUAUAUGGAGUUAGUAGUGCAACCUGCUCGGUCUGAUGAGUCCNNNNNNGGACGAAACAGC

- Variants of: B1
- methodNotes: normalized RNA/DNA level without ligand (relative to sTRSVctl = 100) (log10 (% of sTRSVctl)); HEK293T; ligand: cyclic di-GMP (c-di-GMP-II aptamer); higher = less ribozyme self-cleavage, higher mRNA level
- experimentalParameters: reporter: mCherry (pCS4076), ligand present: no
valueType: normalized RNA/DNA level without ligand (log10)
Reply with the value as a number alone.

Which normalized RNA/DNA level without ligand (log10) value is on record for UCGUUA ?
1.44

Which normalized RNA/DNA level without ligand (log10) value is on record for ACCAUA ?
1.51

Which normalized RNA/DNA level without ligand (log10) value is on record for UAGAUU ?
1.6

Which normalized RNA/DNA level without ligand (log10) value is on record for CAAGGA ?
1.46

Which normalized RNA/DNA level without ligand (log10) value is on record for CAACGU ?
1.67

Which normalized RNA/DNA level without ligand (log10) value is on record for GUUAGG ?
1.56

Which normalized RNA/DNA level without ligand (log10) value is on record for GGUCUU ?
1.64

Which normalized RNA/DNA level without ligand (log10) value is on record for ACAGUG ?
1.51

Which normalized RNA/DNA level without ligand (log10) value is on record for UCAAGG ?
1.8

Which normalized RNA/DNA level without ligand (log10) value is on record for CUAUCU ?
1.62

Which normalized RNA/DNA level without ligand (log10) value is on record for UUUUCA ?
1.8

Which normalized RNA/DNA level without ligand (log10) value is on record for GAGGCU ?
1.83

Which normalized RNA/DNA level without ligand (log10) value is on record for GCGAGU ?
1.53

Which normalized RNA/DNA level without ligand (log10) value is on record for AUUAAA ?
1.53

Which normalized RNA/DNA level without ligand (log10) value is on record for UGAUCA ?
1.76

Which normalized RNA/DNA level without ligand (log10) value is on record for ACGCUA ?
1.53

Which normalized RNA/DNA level without ligand (log10) value is on record for CUAGAA ?
1.38

Which normalized RNA/DNA level without ligand (log10) value is on record for ACCGUA ?
1.51

Which normalized RNA/DNA level without ligand (log10) value is on record for UAGGUC ?
1.64

Which normalized RNA/DNA level without ligand (log10) value is on record for AAGCAU ?
1.66

Which normalized RNA/DNA level without ligand (log10) value is on record for CAAGUG ?
1.68

Which normalized RNA/DNA level without ligand (log10) value is on record for UUCGCG ?
1.84
